Reported values of MIC for individual entries
Test system: carbapenemase producing K. pneumoniae
Assay: MIC by broth micro-dilution (CLSI), carbapenemase producing K. pneumoniae
Type: cell-based, Klebsiella pneumoniae
Details: Klebsiella pneumoniae, ATCCBAA1705, KPC-2 K. pneumoniae ATCC BAA-1705; read-out: MIC
measure-name: MIC (µg/mL)

{"columns": ["compound", "measure-name", "units-of-measure", "value-comparator", "test-result"],
 "data": [
  ["C[C@@H](NC(=O)CC1CCCN1)[C@H]1C(=O)N2C(C(=O)O)=C(S[C@@H]3CN[C@H](C(=O)N4CCC(N)C4)C3)[C@H](C)[C@H]12 (stereo in doubt) [Example 509]", "MIC", "µg/mL", "=", 4],
  ["C[C@@H](NC(=O)C(F)F)[C@H]1C(=O)N2C(C(=O)O)=C(S[C@@H]3CN[C@H](C(=O)N4CC[C@@H](F)C4)C3)[C@H](C)[C@H]12 [Example 209]", "MIC", "µg/mL", "=", 2],
  ["C[C@@H](NC(=O)Cn1cnnn1)[C@H]1C(=O)N2C(C(=O)O)=C(S[C@@H]3CN[C@H](C(=O)N4C[C@H](N)[C@H](NC(=N)N)C4)C3)[C@H](C)[C@H]12 [Example 565]", "MIC", "µg/mL", "=", 2],
  ["C[C@@H](NC(=O)Cn1cnnn1)[C@H]1C(=O)N2C(C(=O)O)=C(SCCN)[C@H](C)[C@H]12 [Example 415]", "MIC", "µg/mL", "=", 1],
  ["C[C@@H](NC(=O)Cn1cnnn1)[C@H]1C(=O)N2C(C(=O)O)=C(S[C@@H]3CN[C@H](C(=O)N4CCC(C(=O)N5CCNCC5)CC4)C3)[C@H](C)[C@H]12 [Example 430]", "MIC", "µg/mL", "=", 2],
  ["C[C@@H](NC(=O)C(F)F)[C@H]1C(=O)N2C(C(=O)O)=C(S[C@@H]3CN[C@H](C(=O)N4CCC(F)(F)CC4)C3)[C@H](C)[C@H]12 [Example 76]", "MIC", "µg/mL", "=", 8],
  ["C[C@@H](NS(C)(=O)=O)[C@H]1C(=O)N2C(C(=O)O)=C(S[C@@H]3CN[C@H](C(=O)N4CCC(O)CC4)C3)[C@H](C)[C@H]12 [Example 24]", "MIC", "µg/mL", "=", 4],
  ["C[C@@H](NC(=O)Cn1cnnn1)[C@H]1C(=O)N2C(C(=O)O)=C(S[C@@H]3CN[C@H](C(=O)N4CCN(C(=O)[C@H]5C[C@@H](N)CN5)CC4)C3)[C@H](C)[C@H]12 [Example 434]", "MIC", "µg/mL", "=", 2],
  ["C[C@@H](NC(=O)Cn1cnnn1)[C@H]1C(=O)N2C(C(=O)O)=C(S[C@@H]3CN[C@H](C(=O)N4CCN(CCN)CC4)C3)[C@H](C)[C@H]12 [Example 364]", "MIC", "µg/mL", "=", 2],
  ["C[C@@H](NC(=O)C(F)F)[C@H]1C(=O)N2C(C(=O)O)=C(S[C@@H]3CN[C@H](C(=O)N4CC(N)C4)C3)[C@H](C)[C@H]12 [Example 131]", "MIC", "µg/mL", "=", 8],
  ["C[C@@H](NC(=O)C(F)F)[C@H]1C(=O)N2C(C(=O)O)=C(S[C@@H]3CN[C@H](C(=O)N4CC[C@H](NS(C)(=O)=O)C4)C3)[C@H](C)[C@H]12 [Example 110]", "MIC", "µg/mL", "=", 4],
  ["C[C@@H](NC(=O)Cn1cnnn1)[C@H]1C(=O)N2C(C(=O)O)=C(S[C@@H]3CN[C@H](C(=O)N4CCC(Nc5ncccn5)CC4)C3)[C@H](C)[C@H]12 [Example 370]", "MIC", "µg/mL", "=", 64],
  ["C[C@@H](NS(C)(=O)=O)[C@H]1C(=O)N2C(C(=O)O)=C(S[C@@H]3CN[C@H](C(=O)N4CCN(C)CC4)C3)[C@H](C)[C@H]12 [Example 23]", "MIC", "µg/mL", "=", 8],
  ["CC(C)CC(F)(F)C(=O)N[C@H](C)[C@H]1C(=O)N2C(C(=O)O)=C(S[C@@H]3CN[C@H](C(=O)N(C)C)C3)[C@H](C)[C@H]12 [Example 83]", "MIC", "µg/mL", ">", 128]
]}

Provenance of the data: patent US11180504B2
